In this section we review reported solubility at 24 h values for a set of compounds.
Assay: Solubility of the compound in water after 24 hrs by HPLC analysis
Type: physicochemical
Your answer should be a plain number; it is taken to be in µg/mL.

Can you share its solubility at 24 h? I mean this compound: N#Cc1cccnc1N1CCN(C(=O)c2cc(Cc3n[nH]c(=O)c4ccccc34)cc(F)c2F)CC1
1.1

Next, consider the following compound.
Can you share its solubility at 24 h? I mean this compound: O=C(c1cc(Cc2n[nH]c(=O)c3ccccc23)ccc1F)N1CCN(C(=O)C2CC2)CC1
104

---

Assay: Protein binding in mouse plasma at 0.5 to 50 uM after 4 hrs by LC-MS/MS analysis
Format: ADME, cell-free
Conditions: read-out: PPB (converted)
In this section we review reported fraction unbound at 4 h, up to 50 µM values for a set of compounds.
Note: the reply should be a number with no unit written.

Can you share its fraction unbound at 4 h, up to 50 µM? I mean this compound: N#Cc1cccnc1N1CCN(C(=O)c2cc(Cc3n[nH]c(=O)c4ccccc34)cc(F)c2F)CC1
0.012

New cases:
Can you share its fraction unbound at 4 h, up to 50 µM? I mean this compound: Cn1ncnc1[C@H]1c2n[nH]c(=O)c3cc(F)cc(c23)N[C@@H]1c1ccc(F)cc1
0.057

---

Experiment: Cmax in Sprague-Dawley rat at 10 mg/kg, po by LC-MS/MS analysis
Assay type: ADME, organism-based
Parameters: dose 10 mg/kg, route oral
Conditions: in vivo
REPORTED ENDPOINT: Cmax (ng/mL)
Your answer should be a plain number; it is taken to be in ng/mL.

Can you share its Cmax? I mean this compound: N#Cc1cccnc1N1CCN(C(=O)c2cc(Cc3n[nH]c(=O)c4ccccc34)cc(F)c2F)CC1
74.4

---

Experiment: Half life in Sprague-Dawley rat at 20 mg/kg, po by LC-MS/MS analysis
Type: ADME, organism-based
Conditions: in vivo
REPORTED ENDPOINT: half-life (h)
Your answer should be a plain number; it is taken to be in h.

Can you share its half-life? I mean this molecule: O=C(c1cc(Cc2n[nH]c(=O)c3ccccc23)ccc1F)N1CCN(C(=O)C2CC2)CC1 [OLAPARIB]
1

---

Assay: Apparent permeability across apical to basolateral side in human Caco2 cells assessed as drug recovery at 5631.3 pmol after 2 hrs by LC-MS/MS analysis
Assay type: ADME, cell-based
Details: Caco-2, read-out: Drug recovery
REPORTED ENDPOINT: recovery at 2 h
Respond with the figure and its unit, in that order.

Can you share its recovery at 2 h? I mean this compound: Cn1ncnc1[C@H]1c2n[nH]c(=O)c3cc(F)cc(c23)N[C@@H]1c1ccc(F)cc1
98.4%

---

Experiment: Volume of distribution in Sprague-Dawley rat at 10 mg/kg, iv by LC-MS/MS analysis
Assay type: ADME, organism-based
Conditions: in vivo
REPORTED ENDPOINT: Vd (L/kg)
Your answer should be a plain number; it is taken to be in L/kg.

Can you share its Vd? I mean this compound: O=C(c1cc(Cc2n[nH]c(=O)c3ccccc23)ccc1F)N1CCN(C(=O)C2CC2)CC1 [OLAPARIB]
3

---

Experiment: Oral bioavailability in Sprague-Dawley rat at 20 mg/kg by LC-MS/MS analysis
Type: ADME, organism-based
Conditions: in vivo
REPORTED ENDPOINT: bioavailability
Respond with the figure and its unit, in that order.

Can you share its bioavailability? I mean this compound: O=C(c1cc(Cc2n[nH]c(=O)c3ccccc23)ccc1F)N1CCN(C(=O)C2CC2)CC1
45.4%
